# credit: the supplement of paper PMC7877785

# assay comment: self-splicing fitness, log relative to wild type (ln ratio); higher = more splicing; Tetrahymena group I intron in knt gene, E. coli kanamycin selection, DiMSum; sequences stand for … in CUCUCU…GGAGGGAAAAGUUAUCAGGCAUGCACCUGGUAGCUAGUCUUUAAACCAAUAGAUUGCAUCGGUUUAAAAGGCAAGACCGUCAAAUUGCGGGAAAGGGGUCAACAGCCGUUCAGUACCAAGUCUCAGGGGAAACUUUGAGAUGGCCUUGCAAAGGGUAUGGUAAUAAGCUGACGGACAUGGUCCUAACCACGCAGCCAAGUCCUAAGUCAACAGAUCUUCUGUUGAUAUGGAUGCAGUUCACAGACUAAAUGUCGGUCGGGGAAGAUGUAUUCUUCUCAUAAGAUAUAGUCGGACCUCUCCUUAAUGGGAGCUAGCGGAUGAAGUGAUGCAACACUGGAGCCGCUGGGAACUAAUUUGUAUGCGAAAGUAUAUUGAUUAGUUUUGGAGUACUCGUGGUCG;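 further: selection with 25 µg/mL kanamycin versus none on LB agar overnight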
# assay setup: 37 °C
Respond with True for self-splicing fitness (ln) values of -0.5 and above, False for values below.

polymer sequence	assigned class
UAACAGCAAUAUUACGUAAG	False
GAAAAGCAAUAUUACGAGCU	True
CUUGAGCAAUAUUACGCGGG	True
GCCUAGCAAUAUUACGUAGU	True

Textbook exercise: given the entry CGAUAGCAAUAUUACGCAAA , state whether its self-splicing fitness (ln) is greater than or equal to -0.5.
False

Form field: self-splicing fitness (ln) at least -0.5? Entry: ACAAAGCAAUAUUACGGUAG
False

Dear colleague, could you confirm whether ACCCAGCAAUAUUACGAGUC has self-splicing fitness (ln) at or above -0.5?
False

Can CUGGAGCAAUAUUACGUGGG be said to have self-splicing fitness (ln) at or above -0.5?
False

Identify whether the reported self-splicing fitness (ln) of the following sequence is -0.5 or greater: UGCAAGCAAUAUUACGCCCA
True

Kindly determine if self-splicing fitness (ln) recorded for GUGCAGCAAUAUUACGCAUA is above or exactly -0.5.
False

Test whether the sequence GAGCAGCAAUAUUACGGCGU records self-splicing fitness (ln) of -0.5 or higher.
True

Does the sequence GUGAAGCAAUAUUACGGUGU have recorded self-splicing fitness (ln) that is -0.5 or more?
False

Tell me whether self-splicing fitness (ln) is at least -0.5 here: CAUAAGCAAUAUUACGUUCA
False

// inclusive: self-splicing fitness (ln) at least -0.5? input: GUACAGCAAUAUUACGACAU
True

Please indicate if the recorded self-splicing fitness (ln) for UUGUAGCAAUAUUACGCCUU meets or exceeds -0.5.
True

# check: self-splicing fitness (ln) of AUCUAGCAAUAUUACGAAGG is greater than or equal to -0.5
False

---

# assay comment: self-splicing fitness, log relative to wild type (ln ratio); higher = more splicing; Tetrahymena group I intron in knt gene, E. coli kanamycin selection, DiMSum; sequences stand for … in CUCUCU…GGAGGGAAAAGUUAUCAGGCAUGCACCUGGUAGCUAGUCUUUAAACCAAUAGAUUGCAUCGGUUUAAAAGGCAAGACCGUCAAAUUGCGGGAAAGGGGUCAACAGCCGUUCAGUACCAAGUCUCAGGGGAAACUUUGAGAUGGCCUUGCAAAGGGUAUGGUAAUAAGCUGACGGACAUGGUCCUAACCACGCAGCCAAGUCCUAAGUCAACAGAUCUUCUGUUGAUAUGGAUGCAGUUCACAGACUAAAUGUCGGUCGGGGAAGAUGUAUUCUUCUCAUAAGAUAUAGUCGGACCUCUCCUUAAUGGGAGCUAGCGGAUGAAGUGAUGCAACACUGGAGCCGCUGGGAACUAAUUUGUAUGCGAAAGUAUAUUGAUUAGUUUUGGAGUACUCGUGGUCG
# assay setup: 37 °C
parameter: self-splicing fitness (ln)
Number only, no unit.

polymer sequence	self-splicing fitness (ln)
GGGGAGCAAUAUUACGUGUU	-2.29
GCCUAGCAAUAUUACGAAGA	-0.65
ACGCAGCAAUAUUACGGGAU	-1.41
AUACAGCAAUAUUACGCAGU	-2.74
CGGGAGCAAUAUUACGGGAC	-3.25

Next, consider the following sequence.
So what's the measured self-splicing fitness (ln) for this one? UUUUAGCAAUAUUACGUGCA
-1.11
